# assayOverview: inhibitors of Toxoplasma growth in IFN-γ-primed HeLa – cell-based, ME49Luc, luciferase, 72 h, dose response (AID 1259418)
# conditions: T. gondii ME49Luc in IFN-y HeLa, active compounds read low, -100% = high-dose IFN-γ control wells; at 19.5 µM unless noted
Out of some 3,400 compounds screened, about 840 (25%) were called active. Inconclusive results (about 11%) are left out. Only a sample is shown. Potency and affinity values are given separately.
Parameter: max activity. Scope: all listed entries.

Memo: `Cc1ccc(C)c(-c2coc(-c3ccc(NC(=O)Cc4cccs4)cc3)n2)c1` , reported max activity: 19.4% (inactive)

Memo: `COc1cc(-c2noc(-c3nnn(Cc4nc(-c5ccccc5)oc4C)c3C)n2)cc(OC)c1OC` , reported max activity: 6.25% [at 0.35 µM] (inactive)

Memo: `COc1ccc(CCC(=O)N2CCC[C@@H]2C(=O)NCCc2csc(-c3ccccc3)n2)cc1` , reported max activity: 15.9% [at 2.6 µM] (inactive)

Memo: `CC(C)Oc1ccc(NC(=O)c2nc3c(n2C(C)C)CCN(C(=O)c2ccccc2)C3)cc1` , reported max activity: -6.92% [at 2.6 µM] (inactive)

Memo: `Cc1ccc(-c2nc(Cn3nnc(-c4nc(-c5ccccc5Cl)no4)c3C)c(C)o2)cc1` , reported max activity: -11.4% [at 2.6 µM] (inactive)

Memo: `COc1ccc(-c2nc(Nc3ccc(Br)cc3F)c3ccccc3n2)cc1` , reported max activity: 21.7% (inactive)

Memo: `CCOc1ccc(-c2nc3c([nH]2)c(=O)n(C)c(=O)n3C)cc1OC` , reported max activity: 30.3% [at 10 µM] (inactive)

Memo: `COc1ccc(CCNc2nc(SCc3ccc(Cl)cc3)nc3ccccc23)cc1OC` , reported max activity: 9.35% [at 1.35 µM] (inactive)

Memo: `COc1cccc(C(=O)N2CCC3(CC2)Nc2ccc(Cl)cc2-n2cccc23)c1` , reported max activity: 7.04% [at 10 µM] (inactive)

Memo: `COc1ccccc1-c1nc(Cn2nnc(-c3nc(-c4ccc(C)c(C)c4)no3)c2C)c(C)o1` , reported max activity: 8.96% [at 0.68 µM] (inactive)

Memo: `O=C(Cc1ccccn1)N1CC(=O)N2[C@H](C1)[C@@H](c1ccc(C#CCC3CCCC3)cc1)[C@@H]2CO` , reported max activity: 6.79% [at 0.3 µM] (inactive)

Memo: `CN(C)Cc1noc2c1CN(Cc1nccn1C)CC2` , reported max activity: 50.1% (inactive)

Memo: `COc1ccccc1NC(=O)N1CCCCN2[C@H](CO)[C@@H](c3ccc(-c4cccc(C#N)c4)cc3)[C@H]2C1` , reported max activity: 24.8% [at 10 µM] (inactive)

Memo: `COc1ccc(-c2nc(NCCc3ccc(SC)cc3)c3ccccc3n2)cc1` , reported max activity: -32.9% (inactive)

Memo: `COc1ccc(-c2nc(N3CCC(Cc4ccccc4)CC3)c3ccccc3n2)cc1` , reported max activity: 16.4% (inactive)

Memo: `O=C(Cc1cccnc1)N1CC(=O)N2[C@H](CO)[C@H](c3ccc(/C=C/c4ccccc4)cc3)[C@@H]2C1` , reported max activity: 20.1% [at 10 µM] (inactive)

Memo: `O=C(NCCc1csc(-c2ccccc2)n1)[C@H]1CCCN1C(=O)COc1ccccc1` , reported max activity: -18.8% (inactive)

Memo: `NC(=O)C1(N2CCCCC2)CCN(c2ncc(NC(=O)c3ccc(F)cc3)cc2C(=O)O)CC1` , reported max activity: -7.63% [at 10 µM] (inactive)

Memo: `CCCCC(=O)Nc1ccc(-c2nc(-c3ccc(C)cc3C)co2)cc1` , reported max activity: 37.3% [at 10 µM] (inactive)

Memo: `COc1cc(C(=O)Nc2ccc(-c3nc(-c4ccc(C)cc4)co3)cc2)cc(OC)c1OC` , reported max activity: 54.9% [at 10 µM] (inactive)

Recorded values, source PubChem BioAssay AID1259418.
